system: PC-9; assay: Antiproliferative activity against human PC-9 cells assessed as inhibition of cell proliferation measured after 72 hrs by MTT assay; type: functional, cell-based; conditions: PC-9, 72 h
Reported pIC50 values follow for various compounds
Scale: negative log10 of molar concentration, which is what pIC50 denotes.

Use these answered entries as a reference point.
Cc1cc(Nc2cc(-c3ccccc3)[nH]n2)n2nc(SCCCc3ccccc3)nc2n1	5.30
Cc1cc(Nc2cc(-c3ccc(Cl)cc3)[nH]n2)n2nc(SCc3ccc(Br)cc3)nc2n1	5.31
Cc1cc(Nc2cc(-c3ccccc3)[nH]n2)n2nc(SCc3cccc4ccccc34)nc2n1	5.40
Cc1cc(Nc2cc(-c3ccccc3)[nH]n2)n2nc(SCc3ccc(F)cc3)nc2n1	5.09

**Q:** So what's the measured pIC50 for this one? "Cc1cc(Nc2cc(-c3ccccc3)[nH]n2)n2nc(SCc3cccc(Br)c3)nc2n1"
**A:** 5.05

**Q:** So what's the measured pIC50 for this one? "Cc1cc(Nc2cc(-c3ccccc3)[nH]n2)n2nc(SCc3ccc(C(F)(F)F)cc3)nc2n1"
**A:** 5.37

**Q:** So what's the measured pIC50 for this one? "COc1ccc(CSc2nc3nc(C)cc(Nc4cc(-c5ccccc5)[nH]n4)n3n2)cc1"
**A:** 5.09

# credit: ChEMBL document CHEMBL4819020
